The reported measurements were obtained from patent US8822517B2.

experimental-target: dopaminergic D2 receptor (Homo sapiens, UniProt P14416)
Sequence (P14416 1-414 isoform P14416-2): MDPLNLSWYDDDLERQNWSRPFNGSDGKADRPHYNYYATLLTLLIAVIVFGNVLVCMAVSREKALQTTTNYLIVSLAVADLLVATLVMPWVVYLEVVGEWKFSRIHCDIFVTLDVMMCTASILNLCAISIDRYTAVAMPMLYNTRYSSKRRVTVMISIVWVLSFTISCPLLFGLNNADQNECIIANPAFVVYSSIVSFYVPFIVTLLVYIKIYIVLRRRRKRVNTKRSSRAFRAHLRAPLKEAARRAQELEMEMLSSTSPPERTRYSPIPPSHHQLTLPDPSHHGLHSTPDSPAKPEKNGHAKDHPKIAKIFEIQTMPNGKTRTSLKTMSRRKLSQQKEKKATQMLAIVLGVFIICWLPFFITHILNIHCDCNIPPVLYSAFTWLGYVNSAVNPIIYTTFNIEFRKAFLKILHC
assay-text: Binding assay D2S (h), [3H]methyl-spiperone, HEK-293 cells
Parameters: expressed in transfected cells; host or cells: HEK-293 cells
measurement-parameters: read-out: D2 [%]
Method: The specific ligand binding to the receptors is defined as the difference between the total binding and the nonspecific binding determined in the presence of an excess of so unlabelled ligand. The specific Ligand binding to the receptor is defined as the difference between total and non-specific binding determined in the presence of an excess of unlabelled ligand. The compounds were tested at a concentration of 1×10^−6 M, and scintillation counting was the method of detection of ligand binding.
property-measured: inhibition at 1 µM (%)

>>> result("O=S(=O)(NCCCN1CCN(c2cccc3c2OCCO3)CC1)c1ccc2ccccc2c1 [Compound 406]")
59
>>> result("O=C1COc2c(cccc2N2CCN(CCCCNS(=O)(=O)c3ccc4ccccc4c3)CC2)N1 [Compound 427]")
83
>>> result("O=S(=O)(NCCCN1CC=C(c2c[nH]c3ccc(F)cc23)CC1)c1cccc(O)c1 [Compound 437]")
57
>>> result("Cc1[nH]c2ccc(Cl)cc2c1C1=CCN(CCNS(=O)(=O)c2cccc(O)c2)CC1 [Compound 453]")
48
>>> result("O=S(=O)(NCCCCN1CCC(c2noc3cc(F)ccc23)CC1)c1c[nH]c2ncccc12 [Compound 323]")
105
>>> result("O=S(=O)(NCCCCN1CCC(c2noc3cc(F)ccc23)CC1)c1ccc(Cl)c(Cl)c1 [Compound 297]")
93
>>> result("O=S(=O)(NCCCCN1CCN(c2cccc3c2OCCO3)CC1)c1csc2ccccc12 [Compound 400]")
83
>>> result("O=S(=O)(NCCCN1CCC(c2noc3cc(F)ccc23)CC1)c1ccc(-c2ccccc2)cc1 [Compound 112]")
103
>>> result("O=S(=O)(NCCCCN1CCC(c2noc3cc(F)ccc23)CC1)c1ccc2ccccc2c1 [Compound 18]")
98
>>> result("O=S(=O)(NCCCCN1CCN(c2cccc3[nH]ccc23)CC1)c1ccc2cc(Cl)ccc2c1 [Compound 358]")
96
>>> result("O=S(=O)(NCCCN1CCN(c2nsc3ccccc23)CC1)c1ccc(F)cc1 [Compound 248]")
99
>>> result("O=S(=O)(NCCCN1CCC(c2noc3cc(F)ccc23)CC1)c1cccs1 [Compound 339]")
96
>>> result("O=S(=O)(NCCCN1CCC(c2noc3cc(F)ccc23)CC1)c1ccc(C(F)(F)F)cc1 [Compound 334]")
75
>>> result("O=S(=O)(NCCCN1CCN(c2nsc3ccccc23)CC1)c1ccc(Cl)c(Cl)c1 [Compound 251]")
97
>>> result("O=S(=O)(NCCCCN1CCN(c2nsc3ccccc23)CC1)c1ccc2c(c1)OCO2 [Compound 245]")
97
>>> result("COc1cccc(S(=O)(=O)NCCCN2CCC(c3noc4cc(F)ccc34)CC2)c1 [Compound 332]")
83
>>> result("O=S(=O)(NCCCCN1CCC(c2noc3cc(F)ccc23)CC1)c1ccc2cn[nH]c2c1 [Compound 319]")
109

* * *

experimental-target: hERG potassium channels (Homo sapiens)
Sequence (Q12809 whole entry): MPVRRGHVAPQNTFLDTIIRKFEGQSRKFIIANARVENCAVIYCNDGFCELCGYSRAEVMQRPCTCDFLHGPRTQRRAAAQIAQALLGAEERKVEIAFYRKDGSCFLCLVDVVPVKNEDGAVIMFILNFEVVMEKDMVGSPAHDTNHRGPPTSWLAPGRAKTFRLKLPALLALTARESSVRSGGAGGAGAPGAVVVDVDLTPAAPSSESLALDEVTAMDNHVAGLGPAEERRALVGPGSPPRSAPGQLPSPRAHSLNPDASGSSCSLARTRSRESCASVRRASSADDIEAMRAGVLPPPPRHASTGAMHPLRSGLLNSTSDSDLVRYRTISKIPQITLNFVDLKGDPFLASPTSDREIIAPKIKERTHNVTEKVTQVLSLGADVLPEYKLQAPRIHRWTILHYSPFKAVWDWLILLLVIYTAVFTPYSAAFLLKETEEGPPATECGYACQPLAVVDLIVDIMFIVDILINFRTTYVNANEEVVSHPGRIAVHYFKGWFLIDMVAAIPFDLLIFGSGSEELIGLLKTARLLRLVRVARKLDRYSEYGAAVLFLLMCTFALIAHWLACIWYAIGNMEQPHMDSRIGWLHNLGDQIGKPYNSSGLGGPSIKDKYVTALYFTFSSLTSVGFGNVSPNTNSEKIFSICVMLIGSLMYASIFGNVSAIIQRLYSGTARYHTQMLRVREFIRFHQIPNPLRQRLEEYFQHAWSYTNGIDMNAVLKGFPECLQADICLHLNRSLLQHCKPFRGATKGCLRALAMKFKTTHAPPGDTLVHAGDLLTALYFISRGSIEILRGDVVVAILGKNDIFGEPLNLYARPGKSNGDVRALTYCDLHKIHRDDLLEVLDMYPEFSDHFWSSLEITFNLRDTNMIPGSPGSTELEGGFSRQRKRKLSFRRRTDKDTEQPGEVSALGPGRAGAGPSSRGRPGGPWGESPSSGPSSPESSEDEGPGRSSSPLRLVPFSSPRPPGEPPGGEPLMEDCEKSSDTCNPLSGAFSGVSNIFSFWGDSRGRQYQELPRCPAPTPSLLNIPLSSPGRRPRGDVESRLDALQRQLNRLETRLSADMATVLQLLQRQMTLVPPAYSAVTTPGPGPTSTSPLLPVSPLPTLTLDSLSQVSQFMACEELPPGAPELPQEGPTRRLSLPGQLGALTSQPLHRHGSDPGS
assay-text: hERG potassium channel block, electrophysiology (IonWorks Quattro), CHO cells
measurement-parameters: % block of hERG current, cloned hERG channels in CHO cells, IonWorks Quattro
property-measured: hERG [%] (%)

>>> result("O=S(=O)(NCCCCN1CCN(c2cccc3[nH]ccc23)CC1)c1cc2ccc(Cl)cc2s1 [Compound 363]")
0
>>> result("O=S(=O)(NCCCN1CCN(c2nsc3ccccc23)CC1)c1ccc2ccccc2c1 [Compound 6]")
13
>>> result("O=S(=O)(NCCCCN1CCN(c2cccc3[nH]ccc23)CC1)c1ccc(F)cc1 [Compound 359]")
9
>>> result("O=S(=O)(NCCCCN1CCN(c2nsc3ccccc23)CC1)c1cccc2ccccc12 [Compound 1]")
16
>>> result("O=S(=O)(NCCCCN1CCN(c2nsc3ccccc23)CC1)c1ccc2cc(Cl)ccc2c1 [Compound 61]")
12
>>> result("O=S(=O)(NCCCCN1CCN(c2cccc3[nH]ccc23)CC1)c1c[nH]c2ncccc12 [Compound 31]")
2
>>> result("O=S(=O)(NCCCN1CCC(c2noc3cc(F)ccc23)CC1)c1ccc(F)c(Cl)c1 [Compound 331]")
32
>>> result("O=S(=O)(NCCCCN1CCN(c2cccc3[nH]ccc23)CC1)c1ccc2cc(Cl)ccc2c1 [Compound 358]")
0
>>> result("Cc1c(S(=O)(=O)NCCCCN2CCC(c3noc4cc(F)ccc34)CC2)sc2ccc(F)cc12 [Compound 101]")
14
>>> result("O=S(=O)(NCCCCN1CCN(c2cccc3[nH]ccc23)CC1)c1cccc(Cl)c1 [Compound 113]")
16
>>> result("O=S(=O)(NCCCCN1CCN(c2cccc3[nH]ccc23)CC1)c1cnc2ccccn12 [Compound 30]")
"−3"
